Measured values drawn from PubChem BioAssay AID504467 for this set.

experiment: qHTS screen for small molecules that inhibit ELG1-dependent DNA repair in human embryonic kidney (HEK293T) cells expressing luciferase-tagged ELG1; details: HEK293T ELG1-luciferase reporter, luminescence, 16 h, DNA damage induced by 5-fluorouridine; series mostly up to 46.1 µM; note: nearly all actives have a fitted effect of over 55% in size
In all, about 330,000 compounds went through this assay and about 7,700 (2.3%) were called active. Another 26% or so got no clear call; they are omitted. Calls come from the whole dose curve; as a rule, active = well fitted inhibition curve with a large enough effect; inconclusive = small, poorly fitted or top-dose-only effect, or effect the other way; inactive = flat fitted curve, though single readings scatter. Only a selection was taken, and actives are over-represented in it overall.
# output must be one of Yes (active), No (inactive)

Record excerpt, results attached:
>  <COMPOUND>
COC(=O)Cc1ccc(OC(=O)C2CCN(S(=O)(=O)c3ccc(OC)c(OC)c3)CC2)cc1

>  <GROUP>
No

$$$$
>  <COMPOUND>
Cc1ccc(Nc2ccc(C(N)=O)cc2[N+](=O)[O-])cc1

>  <GROUP>
No

$$$$
>  <COMPOUND>
OCCCNc1nccc(-c2cc(Nc3cccc(Cl)c3)ncn2)n1

>  <GROUP>
Yes

$$$$
>  <COMPOUND>
Cc1cccc2cc(CN(Cc3cccs3)C(c3nnnn3C3CCCC3)C(C)C)c(=O)[nH]c12 (centres undefined)

>  <GROUP>
Yes

$$$$
>  <COMPOUND>
Cc1cc(Br)ccc1NC(=O)c1sc2ncn(CC(=O)N3CCN(c4ccccn4)CC3)c(=O)c2c1C

>  <GROUP>
No

$$$$
>  <COMPOUND>
COc1ccccc1C(=O)Nc1ccc(OCc2nnc3c4ccccc4c(C)nn23)cc1

>  <GROUP>
Yes

$$$$
>  <COMPOUND>
COc1cccc(CNS(=O)(=O)c2ccc3c(c2)N(C(C)=O)CCS3)c1

>  <GROUP>
No

$$$$
>  <COMPOUND>
CCc1ccc2nc(N(CCCN(C)C)C(=O)c3ccc4c(c3)OCCO4)sc2c1

>  <GROUP>
No

$$$$

[in] Please state the recorded outcome for this compound: COc1ccc(S(=O)(=O)N2CCN(C)CC2)c(C)c1
[out] No

[in] Please state the recorded outcome for this compound: COc1ccc2[nH]c(=O)c(CN(Cc3nnnn3CCc3ccccc3)CC3CCCO3)cc2c1 (centres undefined)
[out] No

[in] Please state the recorded outcome for this compound: COc1cc(OC)cc(-c2c(C#Cc3ccsc3)c3cc(-c4ccc(OC)cc4F)ccc3n2C)c1
[out] No

* * *

test: qHTS screen for small molecules that inhibit ELG1-dependent DNA repair in human embryonic kidney (HEK293T) cells expressing luciferase-tagged ELG1; conditions: HEK293T ELG1-luciferase reporter, luminescence, 16 h, DNA damage induced by 5-fluorouridine; series mostly up to 46.1 µM; note: nearly all actives have a fitted effect of over 55% in size
Among all 330,000 compounds or so, about 7,700 (2.3%) were called active. Inconclusive results (about 26%) are left out. Calls follow the shape of the dose curve; as a rule, active = well fitted inhibition curve with a large enough effect; inconclusive = small, poorly fitted or top-dose-only effect, or effect the other way; inactive = flat fitted curve, though single readings scatter. For the sample, actives were picked, then their nearest neighbours and some compounds at random.
# output must be one of TRUE for active, FALSE for inactive

Record excerpt, results attached:
>  <STRUCTURE_SMILES>
COc1ccc(C(=O)Nc2ccccc2C(=O)N2CCN(c3ccccc3)CC2)cc1

>  <GROUP>
FALSE

$$$$
>  <STRUCTURE_SMILES>
Cc1ccc(OCC(=O)Nc2ccc(N3CCN(C(=O)c4ccco4)CC3)cc2)c(C)c1

>  <GROUP>
TRUE

$$$$
>  <STRUCTURE_SMILES>
CCCCn1c(SCC(=O)NCCc2ccc(OC)c(OC)c2)nc2c1c(=O)n(C)c(=O)n2C

>  <GROUP>
FALSE

$$$$
>  <STRUCTURE_SMILES>
C=C(C)C(=O)Nc1cccc(C(C)=O)c1

>  <GROUP>
FALSE

$$$$
>  <STRUCTURE_SMILES>
Cn1c(=O)c2c(ncn2CCc2ccccc2)n(C)c1=O

>  <GROUP>
FALSE

$$$$

[in] Please state the recorded outcome for this molecule: Cc1ccc(CSCC(=O)N(C)CC(=O)Nc2ccc(C)cc2)cc1
[out] FALSE

[in] Please state the recorded outcome for this molecule: CC(=O)c1cccc(NC(=O)c2ccncc2)c1
[out] FALSE

* * *

experiment: qHTS screen for small molecules that inhibit ELG1-dependent DNA repair in human embryonic kidney (HEK293T) cells expressing luciferase-tagged ELG1; conditions: HEK293T ELG1-luciferase reporter, luminescence, 16 h, DNA damage induced by 5-fluorouridine; series mostly up to 46.1 µM; note: nearly all actives have a fitted effect of over 55% in size; note: potency is the fitted concentration of half-maximal effect
About 7,700 (2.3%) of roughly 330,000 compounds were called active. Roughly 26% stayed inconclusive and do not appear here. This excerpt belongs to a sample that is enriched for actives.
VALUE_TYPE: Potency

# annotated cases, reported Potency shown
>  <MOLECULE>
COc1ccccc1C(=O)N(Cc1ccc(C)o1)C1CCS(=O)(=O)C1 (centres undefined)

>  <Potency>
inactive

$$$$
>  <MOLECULE>
COc1ccc(CNC(=O)C(C)n2nc(C)c3c(C)n(-c4ccccc4)nc3c2=O)c(OC)c1 (centres undefined)

>  <Potency>
inactive

$$$$
>  <MOLECULE>
Cc1ncoc1C(=O)N1CCCC(C(=O)c2ccc3c4c(cccc24)CC3)C1 (centres undefined)

>  <Potency>
16.4 µM (active)

$$$$
>  <MOLECULE>
NS(=O)(=O)c1ccc(CCNc2nc(C(F)(F)F)nc3ccccc23)cc1

>  <Potency>
11.6 µM (active)

$$$$
>  <MOLECULE>
COCC(C)n1c(SCC(=O)NC2CCCCC2C)nc2ccccc2c1=O (centres undefined)

>  <Potency>
inactive

$$$$

Now consider a different molecule.
[in] Query Potency for Cc1nn(CC(=O)N2CCCCC2)c(=O)c2nn(-c3ccccc3)c(C)c12
[out] inactive

* * *

assay: qHTS screen for small molecules that inhibit ELG1-dependent DNA repair in human embryonic kidney (HEK293T) cells expressing luciferase-tagged ELG1; details: HEK293T ELG1-luciferase reporter, luminescence, 16 h, DNA damage induced by 5-fluorouridine; series mostly up to 46.1 µM; note: nearly all actives have a fitted effect of over 55% in size
About 7,700 (2.3%) of roughly 330,000 compounds were called active. Another 26% or so got no clear call; they are omitted. Calls come from the whole dose curve; as a rule, active = well fitted inhibition curve with a large enough effect; inconclusive = small, poorly fitted or top-dose-only effect, or effect the other way; inactive = flat fitted curve, though single readings scatter. The full list was thinned out, with actives kept by preference.
# output must be one of active, inactive

Record excerpt, results attached:
>  <COMPOUND>
COc1ccc(-c2nc(CS(=O)(=O)CC(=O)NCc3cccc(Br)c3)c(C)o2)cc1

>  <GROUP>
inactive

$$$$
>  <COMPOUND>
Cc1cnc(C(=O)N2CCCC(N3CCN(c4ccccc4F)CC3)C2)cn1 (configuration not stated)

>  <GROUP>
inactive

$$$$
>  <COMPOUND>
O=C(CSc1nnc(COc2ccc(Cl)cc2)n1Cc1ccco1)N1CCNC1=O

>  <GROUP>
inactive

$$$$

[in] Please state the recorded outcome for this compound: COc1ccc(C(CNC(=O)c2ccc(S(=O)(=O)Nc3ccccc3C)cc2)N2CCOCC2)cc1 (configuration not stated)
[out] inactive

[in] Please state the recorded outcome for this compound: O=c1c2cc(Br)ccc2nc(-c2cccc(Cl)c2)n1O
[out] active

[in] Please state the recorded outcome for this compound: O=C1CCCc2c1nc(-c1cccc(Cl)c1)n2O
[out] inactive

[in] Please state the recorded outcome for this compound: CC(C)C[C@H]1CN=C(Nc2ccccc2)N1CC1CCCCC1
[out] inactive

[in] Please state the recorded outcome for this compound: CCOC(=O)N1CCN(C(=O)c2cc3c(-c4ccc(Cl)cc4)nn(C)c3s2)CC1
[out] inactive

[in] Please state the recorded outcome for this compound: CCn1ccnc1CN(C)C(=O)c1cc(COc2ccc(-n3cncn3)cc2)on1
[out] inactive

[in] Please state the recorded outcome for this compound: O=C(CSCC(=O)Nc1cccc([N+](=O)[O-])c1)Nc1ccccc1
[out] inactive

[in] Please state the recorded outcome for this compound: Cn1nc(-c2ccc(Cl)cc2)c2cc(C(=O)NCc3ccco3)sc21
[out] active

[in] Please state the recorded outcome for this compound: COc1ccccc1N1CCN(C(=O)c2cc3c(-c4ccc(Cl)cc4)nn(C)c3s2)CC1
[out] active

* * *

assay: qHTS screen for small molecules that inhibit ELG1-dependent DNA repair in human embryonic kidney (HEK293T) cells expressing luciferase-tagged ELG1; details: HEK293T ELG1-luciferase reporter, luminescence, 16 h, DNA damage induced by 5-fluorouridine; series mostly up to 46.1 µM; note: nearly all actives have a fitted effect of over 55% in size
The whole screen tested about 330,000 compounds, of which about 7,700 (2.3%) were called active. About 26% were inconclusive and are not listed. Calls come from the whole dose curve; as a rule, active = well fitted inhibition curve with a large enough effect; inconclusive = small, poorly fitted or top-dose-only effect, or effect the other way; inactive = flat fitted curve, though single readings scatter. This excerpt belongs to a sample that is enriched for actives.
# output must be one of true for active, false for inactive

[in] Please state the recorded outcome for this molecule: CC(C)(CNC(=O)c1ccc(Cl)c(S(=O)(=O)N2CCc3ccccc3C2)c1)N1CCOCC1
[out] true

* * *

assay: qHTS screen for small molecules that inhibit ELG1-dependent DNA repair in human embryonic kidney (HEK293T) cells expressing luciferase-tagged ELG1; conditions: HEK293T ELG1-luciferase reporter, luminescence, 16 h, DNA damage induced by 5-fluorouridine; series mostly up to 46.1 µM; note: nearly all actives have a fitted effect of over 55% in size
Hit rate of the full screen: of about 330,000 compounds, about 7,700 (2.3%) were called active. Another 26% or so got no clear call; they are omitted. The call rests on the fitted dose curve; in most records, active means well fitted inhibition curve with a large enough effect; inconclusive means small, poorly fitted or top-dose-only effect, or effect the other way; inactive means flat fitted curve, though single readings scatter. This is one part of a sample in which actives are shown more often than they occur.
# output must be one of active, inactive

Record excerpt, results attached:
>  <COMPOUND>
CC1CC(=O)Nc2ccccc2N1C(=O)COc1ccc2cc(Br)ccc2c1 (stereo unspecified)

>  <GROUP>
inactive

$$$$
>  <COMPOUND>
Cc1ccc(NC(=O)COc2coc(CN3CCc4ccccc4C3)cc2=O)cc1Cl

>  <GROUP>
inactive

$$$$
>  <COMPOUND>
CN1CCC(N(C)S(=O)(=O)c2ccc(NC(=O)c3cccc(C#N)c3)cc2)CC1

>  <GROUP>
inactive

$$$$
>  <COMPOUND>
Cn1c(SCC(=O)N2CCCc3ccccc32)nc2ccccc2c1=O

>  <GROUP>
active

$$$$
>  <COMPOUND>
CCCc1nc(SCC(=O)Nc2ccccc2OC)c2c(=O)n(C)c(=O)n(C)c2n1

>  <GROUP>
active

$$$$
>  <COMPOUND>
COC(=O)c1ccc(CNC(=O)c2ccc(S(=O)(=O)N3CCCCCC3)cc2)cc1

>  <GROUP>
inactive

$$$$
>  <COMPOUND>
CCCN(CC(=O)Nc1ccccc1C)C(=O)c1cc(=O)[nH]c2ccccc12

>  <GROUP>
inactive

$$$$
>  <COMPOUND>
O=C(CSc1nc2[nH]ncc2c(=O)n1-c1ccccc1)N1CCCc2ccccc21

>  <GROUP>
inactive

$$$$

[in] Please state the recorded outcome for this compound: c1csc(CN2CCN(Cc3cccs3)C2c2cccs2)c1
[out] inactive

[in] Please state the recorded outcome for this compound: CCCc1nc(SCC(=O)N2CCCC2)c2c(=O)n(C)c(=O)n(C)c2n1
[out] inactive

[in] Please state the recorded outcome for this compound: COc1cccc(CN(C)C(=O)CC23CC4CC(CC(C4)C2)C3)c1OC
[out] inactive
